Hello, the source for this data is ChEMBL document CHEMBL4513216, in case you need it.

Tested on: Plasmodium berghei
protocol_notes: Screen against P. berghei liver stage (PbLuc), transformed with Luciferase, at 10uM
Format: functional, HepG2
condition_details: tested at 10 uM
Among all 69,000 compounds or so, about 8,600 (12%) showed an effect of 50% or more. This excerpt belongs to a sample that is enriched for strong results.
quantity_kind: INHIBITION (%)
Give the quantity in %, number only.

Below, 3 compounds whose answers are already recorded.
compound: CCc1oc2ccc(NS(=O)(=O)CC)cc2c1C(=O)OC
assay_system: Plasmodium berghei
INHIBITION / %: 1.41
//
compound: COCC1CN(Cc2ccoc2)Cc2nn(CC3CC3)cc21 (centres undefined)
assay_system: Plasmodium berghei
INHIBITION / %: 1.9
//
compound: NC(=O)Nc1cccc(Oc2ccccn2)c1
assay_system: Plasmodium berghei
INHIBITION / %: -1.58

Task: For the compound `COc1cc2nc(C)n(CC(=O)NCCCO)c(=O)c2cc1OC` , report INHIBITION.
Output: -5.01

Task: For the compound `Cc1cc(-c2cnc(N3CCCCCC3)nc2-c2cccnc2C)on1` , report INHIBITION.
Output: 59.3

Task: For the compound Cc1cnc(C(=O)N2CCCC(n3cncn3)C2)cn1 (centres undefined) , report INHIBITION.
Output: 41.5

Task: For the compound Cc1ccc2c(c1)CN(C(=O)c1cccnc1)C(CN(C)C)CO2 (centres undefined) , report INHIBITION.
Output: 46

Task: For the compound COc1ccccc1C(=O)N1Cc2cc(C)ccc2OCC1CN(C)C (centres undefined) , report INHIBITION.
Output: 60.3

Task: For the compound c1cnnc(N2CCCC2CNc2cnc3ccccc3n2)c1 (centres undefined) , report INHIBITION.
Output: 7.08
